MEASUREMENT_TARGET: Agg-1 (Homo sapiens)
Sequence (O75173 213-837): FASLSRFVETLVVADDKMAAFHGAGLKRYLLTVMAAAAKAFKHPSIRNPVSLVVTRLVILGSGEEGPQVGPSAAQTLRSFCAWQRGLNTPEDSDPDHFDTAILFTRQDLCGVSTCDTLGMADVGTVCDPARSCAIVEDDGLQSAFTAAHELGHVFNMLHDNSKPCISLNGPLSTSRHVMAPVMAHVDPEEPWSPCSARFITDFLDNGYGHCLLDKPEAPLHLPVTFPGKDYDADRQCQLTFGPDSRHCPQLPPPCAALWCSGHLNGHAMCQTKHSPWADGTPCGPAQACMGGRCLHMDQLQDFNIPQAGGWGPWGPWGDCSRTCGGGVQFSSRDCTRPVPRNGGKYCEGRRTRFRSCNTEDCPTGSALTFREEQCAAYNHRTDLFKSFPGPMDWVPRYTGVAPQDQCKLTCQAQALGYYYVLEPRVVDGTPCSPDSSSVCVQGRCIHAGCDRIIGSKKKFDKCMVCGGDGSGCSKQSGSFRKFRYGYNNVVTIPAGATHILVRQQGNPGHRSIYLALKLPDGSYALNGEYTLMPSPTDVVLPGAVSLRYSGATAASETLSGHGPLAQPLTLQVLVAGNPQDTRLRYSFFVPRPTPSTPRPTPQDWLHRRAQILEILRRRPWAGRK
ASSAY_PROCEDURE: Agg-1 FRET assay
Type: biochemical
EXPERIMENTAL_CONTEXT: @ 7400 nM; read-out: Agg1 %
OUTCOME_MEASURE: inhibition at 7.4 µM (%)

[[record]]
molecule = "O=C(COc1ccccc1)NC(c1ccc2c(c1)OCCO2)c1cc(Cl)c2cccnc2c1O (centres unmarked)"
outcome_measure = "inhibition at 7.4 µM"
observed_measurement = 51

[[record]]
molecule = "O=C(COc1ccccc1)NC(c1cccc2c1OCO2)c1cc(Cl)c2cccnc2c1O (centres unmarked)"
outcome_measure = "inhibition at 7.4 µM"
observed_measurement = 54

[[record]]
molecule = "O=C(COc1ccccc1)NC(c1ccc2c(c1)CCO2)c1cc(Cl)c2cccnc2c1O (centres unmarked)"
outcome_measure = "inhibition at 7.4 µM"
observed_measurement = 43

[[record]]
molecule = "O=C(COc1ccccc1)NC(c1ccc(C#Cc2ccccc2)cc1)c1cc(Cl)c2cccnc2c1O (centres unmarked)"
outcome_measure = "inhibition at 7.4 µM"
observed_measurement = 48

[[record]]
molecule = "O=C(COc1ccccc1)NC(c1cc(Cl)c2cccnc2c1O)c1cccc2cc[nH]c12 (centres unmarked)"
outcome_measure = "inhibition at 7.4 µM"
observed_measurement = 48

[[record]]
molecule = "O=C(COc1ccccc1)NC(c1ccccc1[N+](=O)[O-])c1cc(Cl)c2cccnc2c1O (centres unmarked)"
outcome_measure = "inhibition at 7.4 µM"
observed_measurement = 48

[[record]]
molecule = "COc1ccc(Oc2cccc(C(NC(=O)COc3ccccc3)c3cc(Cl)c4cccnc4c3O)c2)cc1 (centres unmarked)"
outcome_measure = "inhibition at 7.4 µM"
observed_measurement = 57

[[record]]
molecule = "Cc1ccc2occ(C(NC(=O)COc3ccccc3)c3cc(Cl)c4cccnc4c3O)c(=O)c2c1 (centres unmarked)"
outcome_measure = "inhibition at 7.4 µM"
observed_measurement = 43


These measurements were taken from patent US20080269213A1.
